- System: Factor XI protein
- Protocol Notes: Cynomolgus monkeys: plasma Factor XI protein ELISA (Example 29)
- Format: in vivo
- Experimental Context: escalating doses 5, 10, 25 mg/kg s.c., day −5 (before treatment)
In the oligonucleotide strings, read from the 5' end, every base follows the letter of its sugar. An asterisk marks phosphorothioate; unmarked linkages are phosphodiester. Other units and linkages are bracketed, terminal groups are in braces. A string of capitals states the bases alone. e = 2'-O-(2-methoxyethyl) (MOE); [5mC] = 5-methylcytosine; d = 2'-deoxy (DNA)
What Inhibition of Factor XI protein relative to the PBS control was measured for each of the following?
The reply should be a number in %, with the unit left off.

IN: Which value of Inhibition of Factor XI protein relative to the PBS control has been reported for ISIS 416838: gapmer of Table 6 (antisense eG*e[5mC]*eA*eA*e[5mC]*d[5mC]*dG*dG*dG*dA*dT*dG*dA*dT*dG*eA*eG*eT*eG*e[5mC]) in the records?
OUT: 0

IN: Using the record for ISIS 416864: gapmer of Table 8 (antisense eG*eG*e[5mC]*eA*eG*d[5mC]*dG*dG*dA*d[5mC]*dG*dG*d[5mC]*dA*dT*eT*eG*eG*eT*eG) , report its Inhibition of Factor XI protein relative to the PBS control.
OUT: 5

IN: Find the recorded Inhibition of Factor XI protein relative to the PBS control belonging to ISIS 416850: gapmer of Table 8 (antisense eT*eG*e[5mC]*eA*e[5mC]*dA*dG*dT*dT*dT*d[5mC]*dT*dG*dG*d[5mC]*eA*eG*eG*e[5mC]*e[5mC]) and report it.
OUT: 0

IN: Given ISIS 417002: gapmer of Table 8 (antisense eG*eG*dT*dG*d[5mC]*dA*d[5mC]*dA*dG*dT*dT*dT*d[5mC]*dT*dG*eG*e[5mC]*eA*eG*eG) , state its recorded Inhibition of Factor XI protein relative to the PBS control.
OUT: 0

IN: If you can, please state the reported Inhibition of Factor XI protein relative to the PBS control value of ISIS 416858: gapmer of Table 8 (antisense eA*e[5mC]*eG*eG*e[5mC]*dA*dT*dT*dG*dG*dT*dG*d[5mC]*dA*d[5mC]*eA*eG*eT*eT*eT) .
OUT: 0
